assayed-system: human full-length Syk (Homo sapiens)
Construct: Recombinant human full-length Syk was supplied by Millipore
experiment-notes: Syk Enzyme assay - Radioactive filtration kinase assay
experimental-setup: recombinant human full-length Syk 1 nM, poly-GT substrate, [γ-33P] ATP, 40 min room temperature
endpoint-label: IC50 (nM)

Here is how some compounds turned out for IC50.
- c1ccc2c(c1)c(Nc1cnccn1)nn2-c1cc(N2C[C@@H]3C[C@H]2CN3)ccn1: 13
- c1ccc2c(c1)c(Nc1cnccn1)nn2-c1ccnc(N2CCCNCC2)c1: 17

[A] Oc1ccc2c(Nc3cnccn3)nn(-c3cncc(N4C[C@@H]5C[C@H]4CN5)c3)c2c1
[B] c1ccc2c(c1)c(Nc1cnccn1)nn2-c1ccnc(N2C[C@@H]3C[C@H]2CN3)c1
Which gives the smaller IC50 number: A or B ? Response format: the label of the selected entry.
B
(B: 7.4 nM, A: 11 nM)

Data provenance is patent EP2489663A1.
